target: Beta-3 adrenergic receptor (Homo sapiens, UniProt P13945); test: Adenylyl cyclase activation as percent maximal isoproterenol stimulation of CHO cells expressing beta-3 receptor; type: functional, cell-based
Sequence (P13945 whole entry, looked up): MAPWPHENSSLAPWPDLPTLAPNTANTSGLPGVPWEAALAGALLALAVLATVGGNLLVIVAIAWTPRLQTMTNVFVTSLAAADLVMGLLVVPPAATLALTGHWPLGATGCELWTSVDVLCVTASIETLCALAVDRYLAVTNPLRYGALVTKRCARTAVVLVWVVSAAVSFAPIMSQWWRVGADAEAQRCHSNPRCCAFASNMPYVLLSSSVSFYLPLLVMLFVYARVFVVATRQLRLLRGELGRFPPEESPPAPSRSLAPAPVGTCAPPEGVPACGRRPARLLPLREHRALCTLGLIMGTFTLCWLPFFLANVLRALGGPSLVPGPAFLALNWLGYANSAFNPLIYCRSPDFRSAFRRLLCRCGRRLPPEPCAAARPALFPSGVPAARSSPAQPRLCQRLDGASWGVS
Parameter: Activation (%)

>  <Smiles>
CCCCCc1nc(-c2ccc(S(=O)(=O)Nc3ccc(CCNC[C@H](O)c4cccnc4)cc3)cc2)no1

>  <Activation, %>
53

$$$$

(I) CCC(=O)CCc1nc(-c2ccc(S(=O)(=O)Nc3ccc(CCNC[C@H](O)c4cccnc4)cc3)cc2)no1
(II) O=C(CCc1nc(-c2ccc(S(=O)(=O)Nc3ccc(CCNC[C@H](O)c4cccnc4)cc3)cc2)no1)N1CCCC1
Prompt: Identify the item whose Activation is the smaller number: I or II The response must carry the label of the picked entry.
Response: II

----------
target: Beta-1 adrenergic receptor (Homo sapiens, UniProt P08588); test: Binding affinity towards cloned human Beta-1 adrenergic receptor prepared from CHO cells in the presence of [125I]iodocyanopindolol
Sequence (P08588 whole entry): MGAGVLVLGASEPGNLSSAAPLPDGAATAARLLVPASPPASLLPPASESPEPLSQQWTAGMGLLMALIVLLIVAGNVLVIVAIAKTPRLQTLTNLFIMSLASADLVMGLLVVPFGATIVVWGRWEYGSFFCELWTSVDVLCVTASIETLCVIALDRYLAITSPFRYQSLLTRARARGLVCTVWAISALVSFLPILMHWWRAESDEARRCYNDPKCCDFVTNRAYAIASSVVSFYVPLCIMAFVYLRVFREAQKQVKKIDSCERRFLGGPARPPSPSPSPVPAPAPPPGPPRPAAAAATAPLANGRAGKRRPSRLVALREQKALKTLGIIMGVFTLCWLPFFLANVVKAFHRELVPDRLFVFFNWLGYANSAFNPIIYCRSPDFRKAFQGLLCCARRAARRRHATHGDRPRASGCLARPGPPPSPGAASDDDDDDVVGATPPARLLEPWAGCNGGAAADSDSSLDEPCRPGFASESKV
pIC50: −log10 of the molar value.
Parameter: pIC50

Examples from the recorded data:
>  <Molecule>
CCC(=O)CCc1nc(-c2ccc(S(=O)(=O)Nc3ccc(CCNC[C@H](O)c4cccnc4)cc3)cc2)no1

>  <pIC50>
4.60

$$$$
>  <Molecule>
O=S(=O)(Nc1ccc(CCNC[C@H](O)c2cccnc2)cc1)c1ccc(-c2noc(CCCC3CCCCC3)n2)cc1

>  <pIC50>
5.71

$$$$

(a) CC(O)CCCc1nc(-c2ccc(S(=O)(=O)Nc3ccc(CCNC[C@H](O)c4cccnc4)cc3)cc2)no1 (some centres undefined)
(b) O=C(CCc1nc(-c2ccc(S(=O)(=O)Nc3ccc(CCNC[C@H](O)c4cccnc4)cc3)cc2)no1)N1CCCC1
Prompt: Identify the item whose pIC50 is the smaller number: a or b The response must carry the label of the picked entry.
Response: b

----------
experiment: Oral bioavailability of perorally administered compound (10 mg/kg) was tested in dogs; type: ADME, organism-based, Canis lupus familiaris; conditions: dog, in vivo
Parameter: bioavailability (%)
Just the number please, in %, no unit attached.

Prompt: Give the reported value of bioavailability for this record: "CCCCCc1nc(-c2ccc(S(=O)(=O)Nc3ccc(CCNC[C@H](O)c4cccnc4)cc3)cc2)no1"
Response: 62

----------
target: UniProtKB P08588; test: Binding affinity towards cloned human Beta-1 adrenergic receptor prepared from CHO cells in the presence of [125I]iodocyanopindolol
Parameter: IC50 (µM)

Examples from the recorded data:
>  <Compound>
O=S(=O)(Nc1ccc(CCNC[C@H](O)c2cccnc2)cc1)c1ccc(-c2noc(CCOC3CCCC3)n2)cc1

>  <IC50, µM>
8.33

$$$$
>  <Compound>
CCCCCCc1nc(-c2ccc(S(=O)(=O)Nc3ccc(CCNC[C@H](O)c4cccnc4)cc3)cc2)no1

>  <IC50, µM>
2

$$$$
>  <Compound>
CCCCCc1nc(-c2ccc(S(=O)(=O)Nc3ccc(CCNC[C@H](O)c4cccnc4)cc3)cc2)no1

>  <IC50, µM>
5.5

$$$$

(1) CCCc1nc(-c2ccc(S(=O)(=O)Nc3ccc(CCNC[C@H](O)c4cccnc4)cc3)cc2)no1
(2) CC(=O)CCCc1nc(-c2ccc(S(=O)(=O)Nc3ccc(CCNC[C@H](O)c4cccnc4)cc3)cc2)no1
(3) CCCCCCCc1nc(-c2ccc(S(=O)(=O)Nc3ccc(CCNC[C@H](O)c4cccnc4)cc3)cc2)no1
(4) CC(C)CCCc1nc(-c2ccc(S(=O)(=O)Nc3ccc(CCNC[C@H](O)c4cccnc4)cc3)cc2)no1
Prompt: Number of compounds to sort: 4. Sort criterion: IC50, ascending. API: response body holds the labels in the requested order.
Response: 3, 1, 4, 2

(I) Cc1nc(-c2ccc(S(=O)(=O)Nc3ccc(CCNC[C@H](O)c4cccnc4)cc3)cc2)no1
(II) CCCCc1nc(-c2ccc(S(=O)(=O)Nc3ccc(CCNC[C@H](O)c4cccnc4)cc3)cc2)no1
Prompt: Form field 'greater IC50' accepts I or II ; which applies? The response must carry the label of the picked entry.
Response: II

(A) CCC(O)CCc1nc(-c2ccc(S(=O)(=O)Nc3ccc(CCNC[C@H](O)c4cccnc4)cc3)cc2)no1 (some centres not stated)
(B) CCCCCCCCc1nc(-c2ccc(S(=O)(=O)Nc3ccc(CCNC[C@H](O)c4cccnc4)cc3)cc2)no1
Prompt: Form field 'greater IC50' accepts A or B ; which applies? The response must carry the label of the picked entry.
Response: A
(A: 56 µM, B: 9 µM)

----------
biological target: Beta-2 adrenergic receptor (Homo sapiens, UniProt P07550); assay: Binding affinity towards Beta-2 adrenergic receptor prepared from CHO cells expressing the cloned human receptor in the presence of [125I]iodocyanopindolol
Sequence (P07550 whole entry): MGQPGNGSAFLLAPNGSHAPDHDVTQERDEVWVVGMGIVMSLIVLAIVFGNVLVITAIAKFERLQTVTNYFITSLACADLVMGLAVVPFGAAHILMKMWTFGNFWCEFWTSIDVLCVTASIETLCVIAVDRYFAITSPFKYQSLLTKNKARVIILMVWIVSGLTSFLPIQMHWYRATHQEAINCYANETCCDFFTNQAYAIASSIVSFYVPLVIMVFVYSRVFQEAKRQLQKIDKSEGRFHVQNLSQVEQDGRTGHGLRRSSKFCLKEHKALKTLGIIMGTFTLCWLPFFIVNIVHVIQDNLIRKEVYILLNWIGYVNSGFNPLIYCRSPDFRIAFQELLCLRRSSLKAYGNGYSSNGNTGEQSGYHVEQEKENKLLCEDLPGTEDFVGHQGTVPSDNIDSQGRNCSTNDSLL
pIC50: −log10 of the molar value.
Parameter: pIC50

Examples from the recorded data:
>  <Compound>
CC(O)CCCc1nc(-c2ccc(S(=O)(=O)Nc3ccc(CCNC[C@H](O)c4cccnc4)cc3)cc2)no1 (some centres undefined)

>  <Target Entity>
Beta-2 adrenergic receptor (Homo sapiens, UniProt P07550)

>  <Recorded Result>
4.36

$$$$
>  <Compound>
O=S(=O)(Nc1ccc(CCNC[C@H](O)c2cccnc2)cc1)c1ccc(-c2noc(CCCC3CCCC3)n2)cc1

>  <Target Entity>
Beta-2 adrenergic receptor (Homo sapiens, UniProt P07550)

>  <Recorded Result>
6.02

$$$$

(a) CC(=O)CCCc1nc(-c2ccc(S(=O)(=O)Nc3ccc(CCNC[C@H](O)c4cccnc4)cc3)cc2)no1
(b) CCCCCCCc1nc(-c2ccc(S(=O)(=O)Nc3ccc(CCNC[C@H](O)c4cccnc4)cc3)cc2)no1
Prompt: Identify the item whose pIC50 is the smaller number: a or b The response must carry the label of the picked entry.
Response: a

----------
biological target: Beta-3 adrenergic receptor (Homo sapiens, UniProt P13945); assay: Agonist activity as increasedn cAMP production in Chinese hamster ovary (CHO)cells expressing human beta-3 adrenergic receptor
Sequence (P13945 whole entry): as the sequence (P13945 whole entry, looked up) above
Parameter: pEC50
Scale: negative log10 of molar concentration, which is what pEC50 denotes.

>  <Smiles>
CCCCc1nc(-c2ccc(S(=O)(=O)Nc3ccc(CCNC[C@H](O)c4cccnc4)cc3)cc2)no1

>  <Recorded Result>
7.49

$$$$

Prompt: Give the reported value of pEC50 for this record: "O=S(=O)(Nc1ccc(CCNC[C@H](O)c2cccnc2)cc1)c1ccc(-c2noc(CCCC3CCCCC3)n2)cc1"
Response: 7.72

Prompt: Give the reported value of pEC50 for this record: "O=S(=O)(Nc1ccc(CCNC[C@H](O)c2cccnc2)cc1)c1ccc(-c2noc(CCCC3CCCC3)n2)cc1"
Response: 7.82

----------
biological target: Beta-3 adrenergic receptor (Homo sapiens, UniProt P13945); assay: Adenylyl cyclase activation as percent maximal isoproterenol stimulation of CHO cells expressing beta-3 receptor; assay type: functional, cell-based
Parameter: Activation (%)

>  <Smiles>
CCCCCCCc1nc(-c2ccc(S(=O)(=O)Nc3ccc(CCNC[C@H](O)c4cccnc4)cc3)cc2)no1

>  <Units>
%

>  <Activation>
86

$$$$
>  <Smiles>
CC(=O)CCCc1nc(-c2ccc(S(=O)(=O)Nc3ccc(CCNC[C@H](O)c4cccnc4)cc3)cc2)no1

>  <Units>
%

>  <Activation>
69

$$$$
>  <Smiles>
O=S(=O)(Nc1ccc(CCNC[C@H](O)c2cccnc2)cc1)c1ccc(-c2noc(CCCC3CCCCC3)n2)cc1

>  <Units>
%

>  <Activation>
62

$$$$
>  <Smiles>
O=S(=O)(Nc1ccc(CCNC[C@H](O)c2cccnc2)cc1)c1ccc(-c2noc(CCOC3CCCC3)n2)cc1

>  <Units>
%

>  <Activation>
70

$$$$
>  <Smiles>
O=S(=O)(Nc1ccc(CCNC[C@H](O)c2cccnc2)cc1)c1ccc(-c2noc(CCCC3CCCC3)n2)cc1

>  <Units>
%

>  <Activation>
83

$$$$
